B1: tRNA (parent)
chain: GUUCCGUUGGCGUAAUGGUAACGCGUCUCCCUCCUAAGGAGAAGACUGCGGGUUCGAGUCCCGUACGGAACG

variants of: B1; experiment: yeast fitness relative to wild type (ratio to wild type); higher = fitter; tRNA-Arg(CCU), competitive growth, 37 C, YPD
This sample holds only a part of the variants without activity.
Class assignment keyed on yeast fitness, ranges low (below 0.6), mid (0.6 to below 0.8), high (0.8 or more)

>  <ordered residues>
GUUCCGUUGGCGUAAUGGUAACGCGUUUCCCUCCUAAGGAGAACACUGCGGGUUCGACUCCCGUACGGAACG [C27U G44C G58C]

>  <classification>
mid

$$$$
>  <ordered residues>
GUUCUGUUGGCGUAAUGGAAACGCGUCUCACUCCUAAGGAGCAGACUGCGGGUUCGAGUCCCGCACGGAACG [C5U U19A C30A A42C U64C]

>  <classification>
low

$$$$
>  <ordered residues>
GUUCCGUUGGCGUAAUGGUAACGCGUCUCCCUCCUAAGGCGAAGACUGCGAGUUCGAGUCUCGUACGGCACG [A40C G51A C61U A69C]

>  <classification>
mid

$$$$
>  <ordered residues>
GUGCCGUUGGUGUAAUGGUAACGCGUCUCCCUCCUAAGGCGAAGCCCGCGGGUUCGCGUCCUGUACGGAACG [U3G C11U A40C A45C U47C A57C C62U]

>  <classification>
low

$$$$
>  <ordered residues>
GUUCAGUUGGCGUAAUGGUAACGCGUCUCCCUCCUAAGGGGAAGACUGGGGGUUCGAGUCCCGUACGGAACG [C5A A40G C49G]

>  <classification>
low

$$$$
>  <ordered residues>
GUCCCGUUGGCGUAAAGGUAACGCGUCUCCCUCCUAAGGAGAAGACUGCGGGUUCGAGUCCCGUACGGAACG [U3C U16A]

>  <classification>
high

$$$$
>  <ordered residues>
GUUCUGUUGGCGUAAUGGUAACGCGUCCCCCUCCUAAGGAGAAGCCUGCGGGUUCGAGUCCCGUACGGAACG [C5U U28C A45C]

>  <classification>
mid

$$$$
>  <ordered residues>
GUUCGGUUGGCGUAAUGGUAACGCGUCUCCCUCGUAAGGAGAAGACUGCGGGUUCGAGUCCCGUACGGUACG [C5G C34G A69U]

>  <classification>
low

$$$$
>  <ordered residues>
GUUCCGUUGGCGUAAUGGUAACGCAUCUCCUUCCUAACGAGAAGACUGCGGGUCCGAGUCCCGUACGGAACG [G25A C31U G38C U54C]

>  <classification>
mid

$$$$
>  <ordered residues>
GUUCCGUUGGCGUAAUGGUAACGGGUCUGCCUACUAAGGAGAAGACUACGGGUUGGAGUCCCGUACGCAACG [C24G C29G C33A G48A C55G G68C]

>  <classification>
low

$$$$
>  <ordered residues>
GUUUCGUUGGCGUAAUGGUAACGCGUCUCCCUCCUAAGGAGAAGACUGCGGGUUCGAGUCCCGUCCGGAACG [C4U A65C]

>  <classification>
high

$$$$
>  <ordered residues>
GUUCCGUUGGUGUAAUGGUAACGCGUCUCCCUCCUAAGUAGAAGACUGCGGGUUCGAGUCCCGUACGGAACG [C11U G39U]

>  <classification>
high

$$$$
>  <ordered residues>
GUUCCGUUGGUGUAAUGGGAACGCGUCUCCCUCUUAAGGAGAAGACUGCGGGUUCAAGUCCCGUACGGAACG [C11U U19G C34U G56A]

>  <classification>
low

$$$$
>  <ordered residues>
GUUCCGUUGGCGUACUGGUAACGCGUCUUCCUCCUAAGGAGAAGACUGCGGGUUCGAGUCCCGUACGCAACG [A15C C29U G68C]

>  <classification>
low

$$$$
>  <ordered residues>
GUUCCGUUGGCGUAAUGGUAACGCGUCUCCCUCCUAAGGUGAAGACUGCGGGGUCGAGUCCCGUACGGAACG [A40U U53G]

>  <classification>
mid

$$$$
>  <ordered residues>
GUUCCGUUGGAGUAAUGGUAACACGUCUCCCUCCUAAGGAGAAGACUGCGGGUUCGAGUCCCCUACGGAACG [C11A G23A G63C]

>  <classification>
low

$$$$
>  <ordered residues>
GUUCUGCUGGCGUAAUGGUAACGCGUCUCCCUCCUAAGGUGAAGACUGCGGGUUCGAGACCCGUUCGAAACG [C5U U7C A40U U59A A65U G68A]

>  <classification>
mid

$$$$
>  <ordered residues>
GUUCCGUUGGUGUAAUGGUAACGCGCCUCCCUCCUAAGGAGAAGACUGCGGGUUCGAGUCGCGUCCGGAACG [C11U U26C C61G A65C]

>  <classification>
low

$$$$
>  <ordered residues>
GUUCCGUUGGCGUAAUGGUAACGCGACUCCUUCCUAAGGAGAAGACUGCGGGUUCGGGUCCCGUACGGAACG [U26A C31U A57G]

>  <classification>
mid

$$$$
>  <ordered residues>
GCUCCGUUGGCGUAAUGGUAACGCGUCUCCCUCCUAAGGAGAAGACUCCGGGUUCGAGUCCCGUACGGAACG [U2C G48C]

>  <classification>
high

$$$$
